Values were extracted from the supplement of paper PMC11246515.

# assay_remarks: total protein half-life in vivo (active degradation + dilution); higher = more stable protein
# test_conditions: E. coli NCM3722 delta-lon; growth: N-lim chemostat; doubling time 6 h
Parameter total protein half-life in vivo: see the listing below.
Write down the numeric answer in h and omit the unit.

Input MQENQQITKKEQYNLNKLQKRLRRNVGEAIADFNMIEEGDRIMVCLSGGKDSYTMLEILRNLQQSAPINFSLVAVNLDQKQPGFPEHVLPEYLEKLGVEYKIVEENTYGIVKEKIPEGKTTCSLCSRLRRGILYRTATELGATKIALGHHRDDILQTLFLNMFYGGKMKGMPPKLMSDDGKHIVIRPLAYCREKDIQRFADAKAFPIIPCNLCGSQPNLQRQVIADMLRDWDKRYPGRIETMFSAMQNVVPSHLCDTNLFDFKGITHGSEVVNGGDLAFDREEIPLQPACWQPEEDENQLDELRLNVVEVK . Output total protein half-life in vivo: 1.44

Moving on to the next sequence.
Input MQQVFFQETEFLNSVIDYDHKVETENLCLDIAYGTDKNFLFGCGISIASILKYNEGSRLCFHIFTDYFGDDDRKYFDALALQYKTRIKIYLINGDRLRSLPSTKNWTHAIYFRFVIADYFINKAPKVLYLDADIICQGTIEPLINFSFPDDKVAMVVTEGQADWWEKRAHSLGVAGIAKGYFNSGFLLINTAQWAAQQVSARAIAMLNEPEIIKKITHPDQDVLNMLLADKLIFADIKYNTQFSLNYQLKESFINPVTNDTIFIHYIGPTKPWHDWAWDYPVSQAFMEAKNASPWKNTALLKPNNSNQLRYSAKHMLKKHRYLKGFSNYLFYFIEKIKH . Output total protein half-life in vivo: 5.78

* * *

# assay_remarks: total protein half-life in vivo (active degradation + dilution); higher = more stable protein
# test_conditions: wild type E. coli NCM3722; growth: C-lim chemostat; doubling time 6 h
Parameter total protein half-life in vivo: see the listing below.
Write down the numeric answer in h and omit the unit.

Recorded total protein half-life in vivo, per entry:
Input MSITLSDSAAARVNTFLANRGKGFGLRLGVRTSGCSGMAYVLEFVDEPTPEDIVFEDKGVKVVVDGKSLQFLDGTQLDFVKEGLNEGFKFTNPNVKDECGCGESFHV [P0AAC8] . Output total protein half-life in vivo: 1.62

Input MKFKTNKLSLNLVLASSLLAASIPAFAVTGDTDQPIHIESDQQSLDMQGNVVTFTGNVIVTQGTIKINADKVVVTRPGGEQGKEVIDGYGKPATFYQMQDNGKPVEGHASQMHYELAKDFVVLTGNAYLQQVDSNIKGDKITYLVKEQKMQAFSDKGKRVTTVLVPSQLQDKNNKGQTPAQKKGN [P0ADV1] . Output total protein half-life in vivo: 5.63

Input MSTLEPAAQSKPPGGFKLWLSQLQMKHGRKLVIALPYIWLILLFLLPFLIVFKISLAEMARAIPPYTELMEWADGQLSITLNLGNFLQLTDDPLYFDAYLQSLQVAAISTFCCLLIGYPLAWAVAHSKPSTRNILLLLVILPSWTSFLIRVYAWMGILKNNGVLNNFLLWLGVIDQPLTILHTNLAVYIGIVYAYVPFMVLPIYTALIRIDYSLVEAALDLGARPLKTFFTVIVPLTKGGIIAGSMLVFIPAVGEFVIPELLGGPDSIMIGRVLWQEFFNNRDWPVASAVAIIMLLLLIVPIMWFHKHQQKSVGEHG . Output total protein half-life in vivo: 5.16

Continuing:
Input MKKLALILFMGTLVSFYADAGRKPCSGSKGGISHCTAGGKFVCNDGSISASKKTCTN [P0ACW4] . Output total protein half-life in vivo: 4.49

Input MTKQVKIYHNPRCSKSRETLNLLKENGVEPEVVLYLETPADAATLRDLLKILGMNSARELMRQKEDLYKELNLADSSLSEEALIQAMVDNPKLMERPIVVANGKARIGRPPEQVLEIVG . Output total protein half-life in vivo: 5.12

Input MLSRHINYFLAVAEHGSFTRAASALHVSQPALSQQIRQLEESLGVPLFDRSGRTIRLTDAGEVWRQYASRALQELGAGKRAIHDVADLTRGSLRIAVTPTFTSYFIGPLMADFYARYPSITLQLQEMSQEKIEDMLCRDELDVGIAFAPVHSPELEAIPLLTESLALVVAQHHPLAVHEQVALSRLHDEKLVLLSAEFATREQIDHYCEKAGLHPQVVIEANSISAVLELIRRTSLSTLLPAAIATQHDGLKAISLAPPLLERTAVLLRRKNSWQTAAAKAFLHMALDKCAVVGGNESR . Output total protein half-life in vivo: 4.75
